Target: T1, human c-mpl (thrombopoietin receptor) on HU-03 cells and human platelets (human, UniProt P40238 26-635)
T1 construct: whole, on cells; also called mpl receptor; TPO receptor
T1 sequence (looked up): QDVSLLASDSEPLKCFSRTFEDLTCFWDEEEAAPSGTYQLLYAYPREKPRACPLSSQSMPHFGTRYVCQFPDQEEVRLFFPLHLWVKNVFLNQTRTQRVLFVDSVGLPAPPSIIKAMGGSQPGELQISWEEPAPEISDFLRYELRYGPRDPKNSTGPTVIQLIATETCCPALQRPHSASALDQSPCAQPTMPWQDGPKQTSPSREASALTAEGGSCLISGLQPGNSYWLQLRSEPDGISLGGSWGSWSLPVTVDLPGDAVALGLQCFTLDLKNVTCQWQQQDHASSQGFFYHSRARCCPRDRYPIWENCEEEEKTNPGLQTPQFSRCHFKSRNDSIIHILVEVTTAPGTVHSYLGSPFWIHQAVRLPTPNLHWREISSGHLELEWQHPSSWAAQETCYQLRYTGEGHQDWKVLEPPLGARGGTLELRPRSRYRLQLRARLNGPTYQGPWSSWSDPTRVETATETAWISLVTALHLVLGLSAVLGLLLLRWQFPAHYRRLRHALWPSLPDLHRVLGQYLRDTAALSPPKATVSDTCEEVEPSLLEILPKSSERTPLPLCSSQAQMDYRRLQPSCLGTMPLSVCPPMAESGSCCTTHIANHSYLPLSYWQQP
Assay: competition with 100 pM 125I-TPO for binding to human platelets
Each record here notes measured IC50.
Express it in nM; write the number only.

[[record]]
binder = "12B5 scFv (scFv) MAQVQLVQSGGGLVRPGGSLSLSCAVSGITLRTYGMHWVRQAPGKGLEWVAGISFDGRSEYYADSVQGRFTISRDSSKNTLYLQMNSLRAEDTAVYYCARGAHYGFDIWGQGTMVTVSSGGGGTGGGGSGGGGSDIQMTQSPSTLSASIGDRVTITCRASEGIYHWLAWYQQKPGKAPKLLIYKASSLASGAPSRFSGSGSGTDFTLTISSLQPDDFATYYCQQYSNYPLTFGGGTELEIKRAA"
value_unit = "nM"
test_value = 100

[[record]]
binder = "12E10 scFv (scFv) MAQVQLQQSGPGLVKPSETLSLTCTVSGDSISSYYWSWIRQPPGKGLEWIGYIYYSGSTNYNPSLKSRVTISVDTSKSQFSLKLSSVTAADTAVYYCARGRYFDVWGRGTMVTVSSGGGGSGGGGSGGGGSSYVLTQPPSVSGSPGQSITISCTGTSSDVGGYNYVSWYQQHPGKAPKLMIYEGSKRPSGVSNRFSGSKSGNTASLTISGLQAEDEADYYCSSYTTRSTRVFGGGTKLTVLGAA"
value_unit = "nM"
test_value = 5

[[record]]
binder = "12B5 IgG (antibody, V domains shown) VH: QVQLVQSGGGLVRPGGSLSLSCAVSGITLRTYGMHWVRQAPGKGLEWVAGISFDGRSEYYADSVQGRFTISRDSSKNTLYLQMNSLRAEDTAVYYCARGAHYGFDIWGQGTMVTVSS VL: DIVMTQSPSTLSASIGDRVTITCRASEGIYHWLAWYQQKPGKAPKLLIYKASSLASGAPSRFSGSGSGTDFTLTISSLQPDDFATYYCQQYSNYPLTFGGGTELEIKR"
value_unit = "nM"
test_value = 300


We now examine a further binder.
Ask: Request the reported IC50 associated with 12D5 IgG (antibody, V domains shown) VH: QVQLVESGGGLVKPGGSLRLSCAASGFTFSSHNMNWVRQAPGKGLEWVSSISSSSSYIYYADSVKGRFTISRDNAKNSLYLQMNSLRAEDTAVYYCARDRGSTGMDVWGRGTLVTVSS VL: DIVMTQSPSTLSASIGDRVTITCRASEGIYHWLAWYQQKPGKAPKLLIYKASSLASGAPSRFSGSGSGTDFTLTISSLQPDDFATYYCQQYSNYPLTFGGGTELEIKR
Result: 500
